tested on: COLO 205 colon; assay: NCI-60 one-dose screen, 48 h (100 = growth as untreated, 0 = no growth, -100 = all killed); conditions: 10 µM unless noted
This is part of a sample that, as a whole, favours compounds with a hit. Of some 83,000 tested, about 20% had one in any assay.
Measured attribute: growth (%)

1) Cc1cc(Nc2ccc(OCc3ccccc3)cc2)nc2cc(O)ccc12: 21.9
2) O=C1/C(=C\c2ccc[nH]2)c2ccccc2N1c1ccccc1: 108
3) COc1cc(/C=C2\CCC/C(=C\c3cc(CN4CCCCC4)c(O)c(OC)c3)C2=O)cc(CN2CCCCC2)c1O: 88.4
4) Fc1ccc(Oc2ccc(Nc3ncnc4onc(-c5ccccc5)c34)cc2)cc1: 122
5) O=C(Nc1ccc(Cl)cc1F)c1cc(Br)ccc1O: 51.5
6) COc1ccc(C)c2sc(N(Cc3cccnc3)C(=O)c3ccc(C#N)cc3)nc12: 1.84
7) CC/C(=C(\CC)c1ccc(OCC[N+](C)(C)C)cc1)c1ccc(OC)cc1: 6.92
8) c1ccc2c(c1)oc1cc3sccc3nc12: 109
9) COc1ccc2c(c1)C=C1CSCC3=Cc4cc(OC)ccc4OC13O2: 3.24
10) O=C(Nc1ccc(I)cc1F)c1cc(F)ccc1O: 25.1
11) Cc1ccc(NC2=CC(=O)C(=O)c3ccccc32)c(C)c1: 85
12) CCC1=C[C@@H]2CN(C1)Cc1c([nH]c3ccccc13)[C@@](C(=O)OC)(c1cc3c(cc1OC)N(C)[C@H]1[C@@](O)(C(=O)OC)[C@H](OC(C)=O)[C@]4(CC)[C@@H]5C[C@@H]5CN5CC[C@]31[C@@H]54)C2: -86
13) C#CCn1cc(C=C2C(=O)N(C)C(=O)N(C)C2=O)c2cc(Cl)ccc21: 122
14) Cc1[nH]c2ccccc2c(=O)c1CC=C(Cl)Cl: 35
15) CCN(CC)CCCNc1ccnc2cc3ccccc3cc12: 74.8
16) CC(=O)SC1CC(=O)C=C2CCC3C4CCC(=O)OC4(C)CCC3C21C (centres undefined): 116
17) O=C1c2cc(Cl)ccc2Oc2cc([N+](=O)[O-])ccc2N1c1ccc(F)cc1F: 96.5
18) COc1ccc(C2=Nn3c(NN)nnc3SC2)cc1: 108
19) COc1cc(C2C3=C(COC3=O)N(CCO)c3cc4c(cc32)CCC4)cc(OC)c1O (centres undefined): 13.6
20) Cc1ccc(NCCNCC(O)CO)c2c(=O)c3ccccc3sc12 (centres undefined): -87.2
21) CC(=Nc1ccccc1)C1=C(O)C(Cc2ccc(F)cc2)NC1=O (centres undefined): -52.1
22) COC(=O)[C@H](NC(=O)C1(C)CCC[C@]2(C)[C@H]3C[C@H]4C(C(C)C)=C[C@]3(CC[C@@H]12)[C@@H]1C(=O)CCC(=O)[C@@H]14)C(C)C (some centres undefined): 110
23) COc1ccc2sc(N(Cc3cccnc3)C(=O)c3ccc(C#N)cc3)nc2c1: 84
24) COC(=O)C1(C)CCC[C@]2(C)[C@H]3C[C@H]4C(C(C)C)=C[C@]3(CC[C@@H]12)[C@H]1[C@@H]4[C@@H](OCC#CCN2CCOCC2)CC[C@@H]1OCC#CCN1CCOCC1 (some centres undefined): 89.2
25) COc1cc(/C=C2\CN(S(=O)(=O)c3ccccc3)C/C(=C\c3cc(CN4CCCC4)c(O)c(OC)c3)C2=O)cc(CN2CCCC2)c1O: -30.4
26) CCC1=C[C@]2(C3CC(=O)N(c4ccccc4)C3=O)CC(C(C)(C)C)C[C@@H]2[C@@H]2C(=O)N(c3ccccc3)C(=O)[C@H]12 (some centres undefined): 93.3
27) CC(=O)O[C@@H]1/C=C/C(=O)N[C@@H](C)CCC/C=C/[C@@H]2CCC[C@H]21: 114
28) CCC(C)(C)C(=O)O[C@H]1C[C@@H](C)C=C2C=C[C@H](C)[C@H](CC[C@@H]3CC=CC(=O)O3)[C@H]21: 72.7
29) COc1ccc(-c2nnc(COc3ccc(C(=O)/C=C/c4ccco4)cc3)o2)cc1: 44.7
30) FC(F)(F)c1cccc(Nc2nc(-c3ccccc3)nc3ncccc23)c1: -75
31) CN(C)CCCNCc1ccc(-c2ccc(F)c(Cl)c2)o1: -90
32) O=C1/C(=C/c2cccc(O)c2)COc2ccc(O)cc21: 102
33) O=S1(=O)CCN(Cc2ccccc2)CC1: 107
34) O=C1OC(c2ccccc2)(c2ccccc2)c2ccsc21: 121
35) O=C(Nc1ccc(N2CCNCC2)cc1)c1[nH]ncc1Nc1ncnc2sc3c(c12)CCC3: -77.2
36) O=C(Nc1ccc(F)cc1F)c1cc(Cl)ccc1O: 9.45
37) COc1ccc(-c2nc(N3CCN(C(=O)C4CCCCC4)CC3)c3c4c(sc3n2)CCCC4)cc1: -38.5
38) O=Cc1cc2ccccc2nc1Nc1nccs1: 69.7
39) COc1ccccc1N1C(=N)S/C(=C\c2ccc(OCc3ccccc3F)cc2)C1=O: 112
